- run description: HFrEF study Part 2 (MAD Cohorts A-D): plasma pharmacokinetics
- Assay type: in vivo, human
- settings: human, plasma, oral, 75 mg, MAD Cohort C, 75 mg BID (with food); Mean; read-out: t1/2, λz (converted)
assay metric: half-life (h)

# molecule smiles, observed value
data = [
    ("Cn1cc(S(=O)(=O)[C@@](C)(F)C2CCN(C(=O)Nc3ccon3)CC2)c(C(F)F)n1", 22),
]

----------
- run description: Single ascending oral dose study in healthy volunteers: plasma pharmacokinetics
- Type: in vivo, human
- settings: human, plasma, oral, 100 mg, 12 Hours Postdose; 100 mg; read-out: Plasma concentration, Geometric Mean

# compound, concentration at 12 h / ng/mL
data = [
    ("Cn1cc(S(=O)(=O)[C@@](C)(F)C2CCN(C(=O)Nc3ccon3)CC2)c(C(F)F)n1 [Compound I]", 661),
]

Measured values drawn from patent US20220265629A1 for this set.
